These data points were gathered from PubChem BioAssay (NCI).

Test system: KM12 colon
Experiment: NCI tumour cell line growth inhibition, 48 h
# Lookup of reported GI50 keyed by entry

Recorded results for 6 molecules are shown here.
Asked: // query GI50 value for entry `O=C(COc1cccc(/C=C2\COc3ccccc3C2=O)c1)c1ccccc1`
Given back: 1.92 µM

Asked: Field entry: `Nc1c(C(=O)c2ccc(C#CCN3CCOCC3)cc2)cnn1-c1ccc(F)cc1`
Given back: > 25 µM

Asked: Field entry: CC(C)(C)[Si](C)(C)OC1[C@@H](O[Si](C)(C)C(C)(C)C)[C@@H](CNC(=O)NC(=O)NC(=O)CCl)O[C@H]1n1cnc2c(NC(=O)Nc3ccccc3)ncnc21 (stereo not given in full)
Given back: 1.84 µM

Asked: Field entry: CC(=O)OC1CC2C(C)(C)CCC[C@]2(C)C2=C1C(O)=C(C(C)C)C(=O)C2=O (stereo not given in full)
Given back: 0.644 µM

Asked: Field entry: `Cc1cncc(-c2nc(NCCc3c[nH]c4ccccc34)c3ncn(C(C)C)c3n2)c1`
Given back: 3.36 µM

Asked: Field entry: `O=C(NCCCl)NCCN1c2nc3ccccc3cc2Sc2cc3ccccc3nc21`
Given back: 2.67 µM

***
Asked: // query GI50 value for entry COc1ccc(C2=NN(C=O)C(c3ccc(OS(=O)(=O)c4ccc(C)cc4)c(OC)c3)C2)cc1 (stereo not given)
Given back: 9.23 µM

Asked: Field entry: `COc1cc(-c2cc(-c3cccs3)c(C#N)c(N3CCOCC3)n2)cc(OC)c1OC`
Given back: 6.02 µM

Asked: Field entry: `Clc1ccc(-c2nc3c(-c4ccccc4)nc(-c4ccccc4)cn3c2-c2ccc(Cl)cc2)cc1`
Given back: > 100 µM

Asked: Field entry: `COc1ccc(N=N/C(=N\NC(=O)c2cc(Br)ccc2O)c2ccc(N(CCC#N)CCC#N)cc2OC)cc1`
Given back: 44.6 µg/mL

----------
Tested on: DU-145 prostate
Test: NCI tumour cell line growth inhibition, 48 h
MEASUREMENT KIND: TGI

Recorded results for 6 compounds are shown here.
Asked: // query TGI value for entry C[C@@H]1CC[C@H]2[C@@H](C)C(OC/C=C/COC3O[C@@H]4O[C@@]5(C)CC[C@H]6[C@H](C)CC[C@@H]([C@H]3C)[C@@]46OO5)O[C@@H]3O[C@@]4(C)CC[C@@H]1[C@]32OO4 (some centres undefined)
Given back: > 100 µM

Asked: Field entry: COc1ccc(N=C(CS(=O)c2ccc(C)cc2)C(F)(F)F)cc1 (centres undefined)
Given back: > 100 µM

Asked: Field entry: `CCCCCCCCCCCCNC(=O)N[C@H](C(=O)N[C@H]1/C=C/CCNC(=O)/C=C/[C@H](C)NC1=O)C(C)C`
Given back: 3.78 µM

Asked: Field entry: CC(C)=CC1C(COC(=O)c2ccccc2Cl)C1(C)C (centres undefined)
Given back: > 100 µM

Asked: Field entry: `O=C(CCc1ccc(O)c(O)c1)NCCc1ccccc1`
Given back: > 100 µM

Asked: Field entry: Cc1c2oc3c(C)cnc(C(=O)NC4C(=O)NC(C(C)C)C(=O)N5CCCC5C(=O)N(C)CC(=O)N(C)C(C(C)C)C(=O)OC4C)c3nc-2c(C(=O)NC2C(=O)NC(C(C)C)C(=O)N3CCCC3C(=O)N(C)CC(=O)N(C)C(C(C)C)C(=O)OC2C)c(N)c1=O (centres undefined)
Given back: > 75 µM

***
Asked: // query TGI value for entry CC1(C)CCCC2CC2CCC(C)(C)C1=O (centres undefined)
Given back: > 100 µM

Asked: Field entry: CSCCC(NC(=O)Cc1ccc(C(=O)c2ccccc2)cc1)C(=O)N1CCN(CCCCN2c3ccccc3Sc3cc(N=[N+]=[N-])ccc32)CC1 (centres undefined)
Given back: > 100 µM

Asked: Field entry: `CN1C(=O)/C(=C2\S/C(=N\c3nnc(-c4ccccc4)o3)NC2=O)c2ccccc21`
Given back: > 100 µM

Asked: Field entry: O=C(Nc1ccn(C2CC(I)C(COC(c3ccccc3)(c3ccccc3)c3ccccc3)O2)c(=O)n1)c1ccccc1 (centres undefined)
Given back: 21.5 µM

Asked: Field entry: `CN1CCN(Cc2ccc(NC(=O)c3cncc(C#Cc4c(N)ncc5c(F)cccc45)c3)cc2C(F)(F)F)CC1`
Given back: 1.52 µM

Asked: Field entry: COc1ccc(C2CC(c3ccc(NS(=O)(=O)c4cc([N+](=O)[O-])ccc4C)cc3)=NN2S(=O)(=O)c2cc([N+](=O)[O-])ccc2C)cc1 (centres undefined)
Given back: > 100 µM

Asked: Field entry: C=C[C@]1(C)CC(=O)C(C(C)C=O)[C@]12C(=O)Oc1cccc(C)c1C2=O (some centres undefined)
Given back: 30.6 µM

Asked: Field entry: O=C(O)C1CC(C2CCCCN2)CN2CCCCC12 (centres undefined)
Given back: > 100 µM

Asked: Field entry: `C/C(=N\Nc1nc2ccccc2o1)c1ncccn1`
Given back: > 50.8 µM

Asked: Field entry: `O=[N+]([O-])c1cnc(N(CCO)CCO)s1`
Given back: > 100 µM

Asked: Field entry: `COc1ccc(-c2[nH]c(-c3ccc(OC)cc3)c(-c3ccccn3)c2-c2ccccn2)cc1`
Given back: > 100 µM

Asked: Field entry: `N#Cc1sc2c(c1OC(=O)c1ccc(Cl)cc1)c(=O)n(-c1ccccc1)c(=S)n2-c1ccccc1`
Given back: > 100 µM

Asked: Field entry: `C[C@@H](Oc1ccc(Oc2cnc3ccc(Cl)cc3n2)cc1)C(=O)O`
Given back: > 100 µM

Asked: Field entry: `CCOC(CN(C)C(=O)Nc1ccc(Cl)c(Cl)c1)OCC`
Given back: > 10 µM

Asked: Field entry: `O=S(=O)(Nc1nccs1)c1ccc([As](=O)(O)O)cc1`
Given back: > 100 µM

Asked: Field entry: `COc1ccc(Cc2cc(OC)c(OC)c(OC)c2)cc1`
Given back: 6.38 µM

Asked: Field entry: NC(CP(=O)(O)O)C(=O)O (centres undefined)
Given back: > 100 µM

Asked: Field entry: O=C(NC(=O)c1ccccc1)OC(c1ccccc1)C1CO1 (centres undefined)
Given back: > 100 µM
